All values here come from patent US20230293518A1.

Please go through the items and note down their IC50.
# ASSAYED SYSTEM: skeletal myofibrils (myosin ATPase)
# RUN DESCRIPTION: Skeletal Myofibril ATPase Assay
# Type: biochemical
# PARTICULARS: Table 4A

Worked cases, IC50 given:
>  <COMPOUND>
CCNC(=O)Cn1nc(-c2cnc(OCC(F)(F)F)nc2)ccc1=O [Compound I-8]

>  <ASSAYED SYSTEM>
skeletal myofibrils (myosin ATPase)

>  <IC50>
< 10 µM

$$$$
>  <COMPOUND>
C[C@H](NC(=O)Cn1nc(-c2ccc(OC(F)F)nc2)ccc1=O)c1ccnn1C [Compound I-29]

>  <ASSAYED SYSTEM>
skeletal myofibrils (myosin ATPase)

>  <IC50>
> 100 µM

$$$$
>  <COMPOUND>
CCNC(=O)Cn1nc(-c2ccc(OCC3COC3)nc2)ccc1=O [Compound I-22]

>  <ASSAYED SYSTEM>
skeletal myofibrils (myosin ATPase)

>  <IC50>
10 to 100 µM

$$$$
>  <COMPOUND>
CCNC(=O)Cn1nc(-c2cnc(Nc3ccc(Cl)cc3)nc2)ccc1=O [Compound I-1]

>  <ASSAYED SYSTEM>
skeletal myofibrils (myosin ATPase)

>  <IC50>
< 10 µM

$$$$

Items follow; give IC50 for each.
1. COc1ccc(-c2ccc(=O)n(CC(=O)NC(C)C)n2)cn1 [Compound I-16]
2. COc1ccc(-c2ccc(=O)n(CC(=O)NCc3ccccc3Cl)n2)cn1 [Compound I-5]
3. CCNC(=O)Cn1nc(-c2ccc(NC3CCC3)nc2)ccc1=O [Compound I-62]

Output:
["10 to 100 µM", "< 10 µM", "< 10 µM"]

Record IC50 per entry; entries follow.
1. CC(C)(C#N)NC(=O)Cn1nc(-c2ccc(OC(F)F)nc2)ccc1=O [Compound I-35]
2. O=C(Cn1nc(-c2ccc(NC3CCC3)nc2)ccc1=O)NC1CCC1 [Compound I-52]
3. O=C(Cn1nc(-c2ccc(OC(F)F)nc2)ccc1=O)NC1CC(F)(F)C1 [Compound I-33]

Output:
10 to 100 µM
< 10 µM
> 100 µM

// batch mode: one IC50 value per listed entry
1. CCNC(=O)Cn1nc(-c2ccc(OC3COC3)nc2)ccc1=O [Compound I-25]
2. CCNC(=O)Cn1nc(-c2cnc(NC34CC(F)(C3)C4)nc2)ccc1=O [Compound I-57]
3. CCNC(=O)Cn1nc(-c2ccc(N3CC(OC(F)F)C3)nc2)ccc1=O [Compound I-55]

Output:
> 100 µM
< 10 µM
10 to 100 µM

----------
For each record, write down the corresponding IC50.
# ASSAYED SYSTEM: skeletal myofibrils (myosin ATPase)
# RUN DESCRIPTION: Skeletal Myofibril ATPase Assay
# Format: biochemical
# PARTICULARS: Table 4C

Answered examples (5):
>  <MOLECULE>
COc1ccc(-c2ccc(=O)n(CC(=O)NC3(c4ccccc4Cl)CC3)n2)cc1 [IIIa-20]

>  <IC50>
10 to 100 µM

$$$$
>  <MOLECULE>
COc1ccc(-c2ccc(=O)n(CC(=O)NCc3ccccc3C)n2)cc1 [IIIa-16]

>  <IC50>
< 10 µM

$$$$
>  <MOLECULE>
COc1ccc(-c2ccc(=O)n(CC(=O)Nc3ccc4c(c3)OCCO4)n2)c(F)c1 [IIIb-15]

>  <IC50>
< 10 µM

$$$$
>  <MOLECULE>
COc1ccc(-c2ccc(=O)n(CC(=O)NCc3cccc(F)c3)n2)cc1 [IIIb-32]

>  <IC50>
10 to 100 µM

$$$$
>  <MOLECULE>
COc1ccc(-c2ccc(=O)n(CC(=O)NCc3ccccc3)n2)c(F)c1 [IIIb-54]

>  <IC50>
> 100 µM

$$$$

// for each molecule below, give its IC50
1. O=C(Cn1nc(-c2ccccc2)ccc1=O)Nc1ccc(Cl)cc1Cl [IIIc-54]
2. COc1ccc(-c2ccc(=O)n(CC(=O)NCc3ccc(C)cc3)n2)cc1 [IIIa-15]
3. O=C(Cn1nc(-c2ccccc2)ccc1=O)NC1CC1 [IIIc-65]
4. COc1ccc(-c2ccc(=O)n(CC(=O)NCc3ccc(Cl)cc3)n2)cc1 [IIIb-31]
5. CCOc1ccc(-c2ccc(=O)n(CC(=O)NC(C)C)n2)cc1 [IIIa-6]
6. Cc1ccc(-c2ccc(=O)n(CC(=O)NC3CCCCCC3)n2)cc1 [IIIc-4]

Output:
["10 to 100 µM", "< 10 µM", "> 100 µM", "10 to 100 µM", "< 10 µM", "10 to 100 µM"]

----------
Consider the following molecules; for each one, report its IC50.
# ASSAYED SYSTEM: skeletal myofibrils (myosin ATPase)
# RUN DESCRIPTION: Skeletal Myofibril ATPase Assay
# Format: biochemical
# PARTICULARS: Table 4A

>  <MOLECULE>
CCC(C)(C)NC(=O)Cn1nc(-c2ccc(OC(F)F)nc2)ccc1=O [Compound I-20]

>  <RESULT>
10 to 100 µM

$$$$
>  <MOLECULE>
O=C(Cn1nc(-c2ccc(OC(F)F)nc2)ccc1=O)NC12CC(C1)C2 [Compound I-11]

>  <RESULT>
10 to 100 µM

$$$$
>  <MOLECULE>
CCNC(=O)Cn1nc(-c2ccc(N3CC4CC(C3)O4)nc2)ccc1=O [Compound I-43]

>  <RESULT>
10 to 100 µM

$$$$
>  <MOLECULE>
O=C(Cn1nc(-c2ccc(OC(F)F)nc2)ccc1=O)NCc1cccc(Cl)c1 [Compound I-76]

>  <RESULT>
10 to 100 µM

$$$$
>  <MOLECULE>
CCNC(=O)Cn1nc(-c2ccc(SC)nc2)ccc1=O [Compound I-63]

>  <RESULT>
< 10 µM

$$$$
>  <MOLECULE>
O=C(Cn1nc(-c2ccc(OC(F)F)nc2)ccc1=O)N[C@H]1CC12CC2 [Compound I-17]

>  <RESULT>
10 to 100 µM

$$$$

Hi! Can you tell me IC50 for each of these molecules?
1. O=C(Cn1nc(-c2ccc(NC34CC(C3)C4)nc2)ccc1=O)NC12CC(C1)C2 [Compound I-46]
2. CC[C@@H](C)NC(=O)Cn1nc(-c2ccc(OC(F)F)nc2)ccc1=O [Compound I-66]
3. CC[C@H](C)NC(=O)Cn1nc(-c2ccc(OC(F)F)nc2)ccc1=O [Compound I-67]
4. CCNC(=O)Cn1nc(-c2ccc(N3CC(COC(F)(F)F)C3)nc2)ccc1=O [Compound I-40]
5. CCNC(=O)Cn1nc(-c2ccc(NC34CCC(CC3)CC4)nc2)ccc1=O [Compound I-41]
6. CCNC(=O)Cn1nc(-c2cnc(OCC3CC(F)(F)C3)nc2)ccc1=O [Compound I-77]
7. O=C(Cn1nc(-c2cnc(OCC(F)(F)F)nc2)ccc1=O)NC12CC(C1)C2 [Compound I-51]

Output:
1. < 10 µM
2. < 10 µM
3. < 10 µM
4. 10 to 100 µM
5. 10 to 100 µM
6. 10 to 100 µM
7. < 10 µM

Dear colleague, could you please provide IC50 for the molecules listed below?
1. CCNC(=O)Cn1nc(-c2ccc(OC(C)C)nc2)ccc1=O [Compound I-27]
2. CCNC(=O)Cn1nc(-c2ccc(NC(C)(C)C)nc2)ccc1=O [Compound I-53]
3. CCNC(=O)Cn1nc(-c2ccc(OCCN(C)C)nc2)ccc1=O [Compound I-26]
4. CCNC(=O)Cn1nc(-c2ccc(N3CC(C)(C)C3)nc2)ccc1=O [Compound I-18]
5. O=C(Cn1nc(-c2ccc(OC(F)F)nc2)ccc1=O)NCc1ccccc1Cl [Compound I-69]

Output:
["> 100 µM", "< 10 µM", "> 100 µM", "10 to 100 µM", "< 10 µM"]

----------
# ASSAYED SYSTEM: skeletal myofibrils (myosin ATPase)
# RUN DESCRIPTION: Skeletal Myofibril ATPase Assay
# Format: biochemical
# PARTICULARS: Table 4A
I'd be grateful if you could share measured IC50 for these entries.

In the examples that follow, each entry is paired with its recorded IC50.
>  <MOLECULE>
CCNC(=O)Cn1nc(-c2ccc(OCCC(F)(F)F)nc2)ccc1=O

>  <ASSAYED SYSTEM>
skeletal myofibrils (myosin ATPase)

>  <IC50>
10 to 100 µM

$$$$
>  <MOLECULE>
CCNC(=O)Cn1nc(-c2ccc(N3CC4(COC4)C3)nc2)ccc1=O

>  <ASSAYED SYSTEM>
skeletal myofibrils (myosin ATPase)

>  <IC50>
> 100 µM

$$$$
>  <MOLECULE>
O=C(Cn1nc(-c2ccc(NC34CC(C3)C4)nc2)ccc1=O)N1CCC1

>  <ASSAYED SYSTEM>
skeletal myofibrils (myosin ATPase)

>  <IC50>
10 to 100 µM

$$$$
>  <MOLECULE>
O=C(Cn1nc(-c2ccc(OC(F)F)nc2)ccc1=O)NC1(c2ccccc2)CCC1

>  <ASSAYED SYSTEM>
skeletal myofibrils (myosin ATPase)

>  <IC50>
< 10 µM

$$$$
>  <MOLECULE>
CCNC(=O)Cn1nc(-c2cnc(NC34CC(C3)C4)nc2)ccc1=O

>  <ASSAYED SYSTEM>
skeletal myofibrils (myosin ATPase)

>  <IC50>
< 10 µM

$$$$

Record IC50 for all entries; do not skip any.
1. CCNC(=O)Cn1nc(-c2ccc(NC34CC(C)(C3)C4)nc2)ccc1=O
2. CCNC(=O)Cn1nc(-c2ccc(OCCCN(C)C)nc2)ccc1=O
3. CC(C)[C@@](C)(C#N)NC(=O)Cn1nc(-c2ccc(OC(F)F)nc2)ccc1=O (stereo in doubt)
4. CCNC(=O)Cn1nc(-c2ccc(CC(F)(F)F)nc2)ccc1=O
5. CC(C)COc1ncc(-c2ccc(=O)n(CC(=O)NC3CCC3)n2)cn1
6. O=C(Cn1nc(-c2cnc(NC34CC(C3)C4)nc2)ccc1=O)NC1CCC1

Output:
1: < 10 µM; 2: > 100 µM; 3: 10 to 100 µM; 4: 10 to 100 µM; 5: > 100 µM; 6: < 10 µM
